Assay: Biodistribution studies incl. blocking experiments
Format: in vivo
Conditions: healthy BALB/c mice, 30 min p.i.
Protocol: For biodistribution studies 6 week old female BALB/c mice (n=3) were injected with 0.1 nmol (100 μL, approx. 1 MBq) of labelled compound via the lateral tail vein and sacrificed after 10, 30, or 60 min by cervical dislocation. The mice were dissected, blood and organs (spleen, pancreas, stomach, intestine, liver, kidney, heart, lung, muscle, and bone) were weighed, and their activity measured in a γ-counter. […]
readout.label: Biodistribution Femur

For orientation, consider the following solved cases.
O=C(CCP(=O)([O-])CN1CCN(CP(=O)([O-])CCC(=O)NCc2cn(CCOCCOCCO[C@@H]3O[C@H](CO)[C@H](O)[C@H](O)[C@H]3O)nn2)CCN(CP(=O)([O-])CCC(=O)NCc2cn(CCOCCOCCO[C@@H]3O[C@H](CO)[C@H](O)[C@H](O)[C@H]3O)nn2)CC1)NCc1cn(CCOCCOCCO[C@@H]2O[C@H](CO)[C@H](O)[C@H](O)[C@H]2O)nn1.[68Ga+3] [[^68Ga]Ga-TRAP-Galactan]	0.32 ± 0.05 % ID/g
O=C(CCP(=O)([O-])CN1CCN(CP(=O)([O-])CCC(=O)NCc2cn(CCOCCOCCO[C@@H]3O[C@H](CO)[C@@H](O)[C@H](O)[C@H]3O)nn2)CCN(CP(=O)([O-])CCC(=O)NCc2cn(CCOCCOCCO[C@@H]3O[C@H](CO)[C@@H](O)[C@H](O)[C@H]3O)nn2)CC1)NCc1cn(CCOCCOCCO[C@@H]2O[C@H](CO)[C@@H](O)[C@H](O)[C@H]2O)nn1.[68Ga+3] [[^68Ga]Ga-TRAP-Gluco, reference compound]	0.15 ± 0.14 % ID/g
O=C(CCP(=O)([O-])CN1CCN(CP(=O)([O-])CCC(=O)NCc2cn([C@@H]3O[C@H](CO)[C@H](O)[C@H](O)[C@H]3O)nn2)CCN(CP(=O)([O-])CCC(=O)NCc2cn([C@@H]3O[C@H](CO)[C@H](O)[C@H](O)[C@H]3O)nn2)CC1)NCc1cn([C@@H]2O[C@H](CO)[C@H](O)[C@H](O)[C@H]2O)nn1.[68Ga+3] [[^68Ga]Ga-Galacto-TRAP]	0.44 ± 0.01 % ID/g

Next, consider the following compound.
Problem: Any idea what Biodistribution Femur was measured for CC(=O)N[C@H]1[C@H](OCCOCCOCCn2cc(CNC(=O)CCP(=O)([O-])CN3CCN(CP(=O)([O-])CCC(=O)NCc4cn(CCOCCOCCO[C@@H]5O[C@H](CO)[C@H](O)[C@H](O)[C@H]5NC(C)=O)nn4)CCN(CP(=O)([O-])CCC(=O)NCc4cn(CCOCCOCCO[C@@H]5O[C@H](CO)[C@H](O)[C@H](O)[C@H]5NC(C)=O)nn4)CC3)nn2)O[C@H](CO)[C@H](O)[C@@H]1O.[68Ga+3] [[^68Ga]Ga-TRAP-GalNAc] ?
Solution: 0.47 ± 0.12 % ID/g

---

Experiment: Biodistribution studies incl. blocking experiments
Assay type: in vivo
Details: healthy BALB/c mice, 60 min p.i.
readout.label: Biodistribution Kidneys
Form field: result (number plus unit)

For orientation, consider the following solved cases.
O=C(O)CN1CCN(CC(=O)O)CCN([C@H](CCC(=O)NCCCC(=O)NC(COCc2cn(CCOCCOCCO[C@@H]3O[C@H](CO)[C@H](O)[C@H](O)[C@H]3O)nn2)(COCc2cn(CCOCCOCCO[C@@H]3O[C@H](CO)[C@H](O)[C@H](O)[C@H]3O)nn2)COCc2cn(CCOCCOCCO[C@@H]3O[C@H](CO)[C@H](O)[C@H](O)[C@H]3O)nn2)C(=O)O)CC1 [[^68Ga]Ga-NODAGA-TriGalactan, metal not drawn]	1.51 ± 0.10 % ID/g
O=C(CCP(=O)([O-])CN1CCN(CP(=O)([O-])CCC(=O)NCc2cn([C@@H]3O[C@H](CO)[C@H](O)[C@H](O)[C@H]3O)nn2)CCN(CP(=O)([O-])CCC(=O)NCc2cn([C@@H]3O[C@H](CO)[C@H](O)[C@H](O)[C@H]3O)nn2)CC1)NCc1cn([C@@H]2O[C@H](CO)[C@H](O)[C@H](O)[C@H]2O)nn1.[68Ga+3] [[^68Ga]Ga-Galacto-TRAP]	0.60 ± 0.06 % ID/g
O=C(CCP(=O)([O-])CN1CCN(CP(=O)([O-])CCC(=O)NCc2cn(CCOCCOCCO[C@@H]3O[C@H](CO)[C@H](O)[C@H](O)[C@H]3O)nn2)CCN(CP(=O)([O-])CCC(=O)NCc2cn(CCOCCOCCO[C@@H]3O[C@H](CO)[C@H](O)[C@H](O)[C@H]3O)nn2)CC1)NCc1cn(CCOCCOCCO[C@@H]2O[C@H](CO)[C@H](O)[C@H](O)[C@H]2O)nn1.[68Ga+3] [[^68Ga]Ga-TRAP-Galactan]	1.72 ± 0.17 % ID/g

Problem: Any idea what Biodistribution Kidneys was measured for CC(=O)N[C@H]1[C@H](OCCOCCOCCn2cc(CNC(=O)CCP(=O)([O-])CN3CCN(CP(=O)([O-])CCC(=O)NCc4cn(CCOCCOCCO[C@@H]5O[C@H](CO)[C@H](O)[C@H](O)[C@H]5NC(C)=O)nn4)CCN(CP(=O)([O-])CCC(=O)NCc4cn(CCOCCOCCO[C@@H]5O[C@H](CO)[C@H](O)[C@H](O)[C@H]5NC(C)=O)nn4)CC3)nn2)O[C@H](CO)[C@H](O)[C@@H]1O.[68Ga+3] [[^68Ga]Ga-TRAP-GalNAc] ?
Solution: 0.79 ± 0.07 % ID/g

Source listed as patent US20260151516A1.
